Assay: glucagon-like peptide 1 release enhancers, primary assay, NCI-H716 cell line, NPC library (AID 1117341); also: reference of the scale not given here
Details: NCI-H716 cells, at 10 µM, stronger effect = higher value
Assignment: determine reported GLP1 secretion stimulation for the given compounds.
Give the value in % but do not write % after it.

Quick one: GLP1 secretion stimulation of CC(=O)CC(c1ccc([N+](=O)[O-])cc1)c1c(O)c2ccccc2oc1=O (stereo unspecified) ?
-5.1

Quick one: GLP1 secretion stimulation of CC(=O)[C@H]1CC[C@H]2[C@@H]3C=CC4=CC(=O)CC[C@@]4(C)[C@@H]3CC[C@]12C ?
3.1

Quick one: GLP1 secretion stimulation of CNCCC(Oc1ccccc1OC)c1ccccc1 (stereo unspecified) ?
1.3

Quick one: GLP1 secretion stimulation of CC(=O)Nc1c(I)c(NC(C)=O)c(I)c(C(=O)O)c1I ?
4.3

Quick one: GLP1 secretion stimulation of CCCCCCCCCCCCCCCC(=O)OCC=C(C)C=CC=C(C)C=CC1=C(C)CCCC1(C)C ?
2.7

Quick one: GLP1 secretion stimulation of CCCCN1C[C@H](O)[C@@H](O)[C@H](O)[C@H]1CO ?
-0.1

---

Assay: suppressors of polyQ aggregation in yeast, 75Q-TubU reporter (AID 1593)
Settings: Yeast 75Q polyglutamine aggregation reporter
Think of 0.6 as a floor: if score stands on it or above, it is true; beneath it, false.

# check: score of Cn1cc[nH]c1=S is greater than or equal to 0.6
true

# check: score of O=C(O)c1cc2cc(Cc3cccnc3)ccc2o1 is greater than or equal to 0.6
true

# check: score of CC(=O)Nc1ccc(OC(=O)c2ccccc2O)cc1 is greater than or equal to 0.6
false

# check: score of CCN(CC)CCOc1ccc2c(c1)C(=O)c1cc(OCCN(CC)CC)ccc1-2 is greater than or equal to 0.6
true

# check: score of O=c1cc(-c2ccccc2)oc2cc(O)cc(O)c12 is greater than or equal to 0.6
false

# check: score of CC(C)OC(=O)C(C)(C)Oc1ccc(C(=O)c2ccc(Cl)cc2)cc1 is greater than or equal to 0.6
false

# check: score of COc1ccc(-c2coc3cc(O)cc(O)c3c2=O)cc1 is greater than or equal to 0.6
true

# check: score of COC(=O)[C@H](c1ccccc1Cl)N1CCc2sccc2C1 is greater than or equal to 0.6
true

# check: score of CC(C)(C)c1ccc(C(O)CCCN2CCC(C(O)(c3ccccc3)c3ccccc3)CC2)cc1 (configuration not stated) is greater than or equal to 0.6
false

# check: score of CC(CN(C)C)CN1c2ccccc2Sc2ccccc21 (configuration not stated) is greater than or equal to 0.6
true

# check: score of NC(=O)c1ccc[n+]([C@@H]2O[C@H](COP(=O)([O-])OP(=O)(O)OC[C@H]3O[C@@H](n4cnc5c(N)ncnc54)[C@H](O)[C@@H]3O)[C@@H](O)[C@H]2O)c1 is greater than or equal to 0.6
true

# check: score of CCC(c1ccc(O)cc1)C(CC)c1ccc(O)cc1 (configuration not stated) is greater than or equal to 0.6
false

---

Assignment: determine reported cell count for the given compounds.
Experiment: sensitizers of A549 cells to miR-34 induction, primary screen, imaging, A549 dox-inducible miR-34, nuclei and caspase counts (AID 1347080)
Conditions: A549 miR-34 inducible, Hoechst nuclei count, 48 h; measured here: total cells without miR-34 induction
The answer should be a number; do not append a unit.

Quick one: cell count of Nc1ncn([C@H]2C[C@H](O)[C@@H](CO)O2)c(=O)n1 ?
9960

Quick one: cell count of Cc1cc(O)c2c(c1)C(=O)c1cc(O)cc(O)c1C2=O ?
8110

Quick one: cell count of CC(C(=O)O)c1ccc(C(=O)c2ccccc2)s1 (stereo not given) ?
10800

Quick one: cell count of CN1CCN(C2Cc3ccccc3Sc3ccc(Cl)cc32)CC1 (stereo not given) ?
5230

Quick one: cell count of CCCCCCCCCCCCCCCC(=O)O ?
5710

---

Experiment: sensitizers of A549 cells to miR-34 induction, primary screen, imaging, A549 dox-inducible miR-34, nuclei and caspase counts (AID 1347080)
Details: A549 miR-34 inducible, Hoechst nuclei count, 48 h; measured here: total cells without miR-34 induction
measured-quantity: cell count
The answer should be a number; do not append a unit.

Quick one: cell count of COc1ccc(-c2cc(=O)c3c(O)cc(O)cc3o2)cc1O ?
9870

Quick one: cell count of CC(C)(C)C(=O)Oc1ccc(S(=O)(=O)Nc2ccccc2C(=O)NCC(=O)O)cc1 ?
9900

Quick one: cell count of CCC(=O)c1ccc(O)cc1 ?
8840

Quick one: cell count of O=C1c2ccccc2S(=O)(=O)N1CCCCN1CCN(c2ncccn2)CC1 ?
9750

Quick one: cell count of C[N+]1(C)[C@@H]2CC[C@H]1CC(OC(=O)C(O)c1ccccc1)C2 (stereo partly specified) ?
8940

Quick one: cell count of C=CCn1c(=O)n([C@@H]2O[C@H](CO)[C@@H](O)[C@H]2O)c2nc(N)[nH]c(=O)c21 ?
9380

Quick one: cell count of CCNC(=O)N1CCN(CCCC(c2ccc(F)cc2)c2ccc(F)cc2)CC1 ?
6940

Quick one: cell count of O=C(OC1C[C@H]2CC[C@@H](C1)[N+]21CCCC1)C(O)(c1ccccc1)c1ccccc1 (stereo partly specified) ?
10200

Quick one: cell count of CCCCOCCOCCOCc1cc2c(cc1CCC)OCO2 ?
8730

Quick one: cell count of CCN(CC)C(=O)c1cccnc1 ?
9130

Quick one: cell count of CCC(CC)(CC(=O)Nc1cccc(/C=C/c2nc(C3CCC3)cs2)c1)C(=O)O ?
8810

Quick one: cell count of CN1C(=O)CC(C)(c2ccccc2)C1=O (stereo unspecified) ?
9410

Quick one: cell count of O=C1NC(=O)[C@@]2(CCOc3ccc(F)cc32)N1 ?
10300

Quick one: cell count of Cc1ccc(-c2ncc(Cl)cc2-c2ccc(S(C)(=O)=O)cc2)cn1 ?
10600

Quick one: cell count of CC(=O)N[C@@H](Cc1ccccc1)C(=O)O ?
8980

Quick one: cell count of O=C(O)Cc1ccc(-c2ccccc2)cc1 ?
10800

Quick one: cell count of CCC(C)(Oc1ccc(C2(c3ccc(OC(C)(CC)C(=O)O)cc3)CCCCC2)cc1)C(=O)O (stereo unspecified) ?
10200

Quick one: cell count of NC(N)=NCCC[C@H](N)C(=O)O ?
10700

Quick one: cell count of CC(O)C(=O)O (stereo unspecified) ?
10100

Quick one: cell count of CCCCCCCCCCCCCCCC(=O)OC/C=C(C)/C=C/C=C(C)/C=C/C1=C(C)CCCC1(C)C ?
12300

Quick one: cell count of CC1(C)CCC(C)(C)c2cc(NC(=O)c3ccc(C(=O)O)cc3)ccc21 ?
9110

Quick one: cell count of CC1=C(CC(=O)O)c2cc(F)ccc2/C1=C\c1ccc(S(C)(=O)=O)cc1 ?
9260

Quick one: cell count of CCc1cccc(CC)c1NC(=O)CN(CC(=O)O)CC(=O)O ?
10400

Quick one: cell count of CC(=O)N(CC(O)CN(C(C)=O)c1c(I)c(C(=O)NCC(O)CO)c(I)c(C(=O)NCC(O)CO)c1I)c1c(I)c(C(=O)NCC(O)CO)c(I)c(C(=O)NCC(O)CO)c1I (stereo unspecified) ?
9890

Quick one: cell count of O=C(N/N=C/c1ccc([N+](=O)[O-])o1)c1ccc(O)cc1 ?
3660

Quick one: cell count of CCN(CC)CCOc1ccc(Cc2ccccc2)cc1 ?
8600

Quick one: cell count of CC(=O)OCC(=O)[C@@]1(O)CCC2C3CCC4=CC(=O)CC[C@]4(C)C3[C@@H](O)C[C@@]21C (stereo partly specified) ?
9340

Quick one: cell count of O=C(O)[C@H](O)c1ccccc1 ?
5570

Quick one: cell count of O=C1O[C@H]([C@@H](O)CO)C(O)=C1O ?
9010

Quick one: cell count of CC1=CC(=O)C2=C(C)CC[C@@H]3[C@H](OC(=O)[C@H]3C)[C@@H]12 ?
9750

Quick one: cell count of CCCn1cnc2c1c(=O)n(CCCCC(C)=O)c(=O)n2C ?
9790

Quick one: cell count of CCOc1ccc2c(c1)C(C)=CC(C)(C)N2 ?
10200

Quick one: cell count of Cc1[nH]c(=O)c(C#N)cc1-c1ccc2nccn2c1 ?
9290

Quick one: cell count of CC(C)NC[C@@H](O)COc1ccc(CC(N)=O)cc1 ?
11100

Quick one: cell count of CCC1=C[C@@H]2CN(C1)Cc1c([nH]c3ccccc13)[C@@](C(=O)OC)(c1cc3c(cc1OC)N(C)[C@H]1[C@@](O)(C(=O)OC)[C@H](OC(C)=O)[C@]4(CC)C=CCN5CC[C@]31[C@@H]54)C2 ?
2030

Quick one: cell count of CO/N=C(\C(=O)N[C@@H]1C(=O)N2C(C(=O)O)=C(CSc3nc(=O)c(O)nn3C)CSC12)c1csc(N)n1 (stereo partly specified) ?
9980

Source listed as PubChem BioAssay.
